system: male C57BL/6N mouse; assay: Effect on glucose tolerance of normal mouse (oral glucose loading); format: in vivo; settings: 2 h, 3 mg/kg oral, 30 min before glucose 2 g/kg, AUC0-120, 0.5% MC = 100%, NVP DPP728 10 mg/kg = 0%, lower = better, read-out: Improvement degree of glucose tolerance
Structures can show the parent of a compound that is named as a salt.
Let's look at some molecules and their measured response vs control in vivo at 3 mg/kg.
Numbers only here, please. The scale is %.

molecule	target-of-assay	obs-value
CC#CCn1c(N2CCNCC2)nc2c1c(=O)n(C)c(=O)n2C1CCOC1=O (stereo not shown) [Example 263, trifluoroacetate]	male C57BL/6N mouse	16.4

Lab note: next molecule to report on.
[ask] Recorded response vs control in vivo at 3 mg/kg of CC#CCn1c(N2CCNCC2)nc2c1c(=O)n(CC(=O)c1ccccc1)c(=O)n2CCOCC [Example 323] , please.
[reply] 0.5
